Origin of measurements: PubChem BioAssay (NCATS)

- TARGET: Bile acid receptor (Homo sapiens)
- PROTOCOL DESCRIPTION: qHTS assay for small molecule agonists of farnesoid X receptor signaling (AID 588527);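 note: series mostly up to about 77 µM; 0% = vehicle basal and 100% = reference agonist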
- ASSAY CONTEXT: HEK293T FXR-UAS-bla, beta-lactamase ratio, 16 h; stronger effect = higher value
Records with an inconclusive call do not appear.
PARAMETER: activation (%)
One number for each entry, in %.

Below are worked cases with known answers.
Cc1ccc(C)c2ccccc12 = -1.23
Cc1cccc(O)c1C = -0.773

Quick one: give me activation for each item below, same order please.
1. CC1=C(/C=C/C(C)=C/C=C/C(C)=C\C=O)C(C)(C)CCC1
2. O=C(O)CCCc1c[nH]c2ccccc12

Reply:
25.7
-2.14
